tested on: A549; assay: Antiproliferative activity against human A549 cells assessed as reduction in cell viability measured after 72 hrs by SRB assay; details: A549, 72 h
pIC50: −log10 of the molar value.
Provide the recorded pIC50 for the entries that follow.

Notebook: CC1=C[C@H]2[C@@]3(O)[C@H](C)[C@@H](OC(=O)CCc4ccccc4)[C@]4(OC(=O)CCc5ccccc5)[C@H]([C@@H]3C=C(CO)C[C@]2(O)C1=O)C4(C)C , pIC50 read as < 5.00

Notebook: C/C=C/C(=O)O[C@]12C([C@@H]3C=C(CO)C[C@]4(O)C(=O)C(C)=C[C@H]4[C@@]3(O)[C@H](C)[C@H]1O)C2(C)C (single isomer, unassigned) , pIC50 read as < 5.00

Notebook: CC/C=C/C/C=C/C/C=C/C/C=C/C/C=C/CCCC(=O)O[C@@H]1[C@@H](C)[C@@]2(O)[C@@H](C=C(CO)C[C@]3(O)C(=O)C(C)=C[C@@H]23)[C@@H]2C(C)(C)[C@]12OC(=O)CCC/C=C/C/C=C/C/C=C/C/C=C/C/C=C/CC , pIC50 read as < 5.00
